# Test system: Plasmodium falciparum
# Assay name: Relative activity against Plasmodium falciparum W2 compared to arteether as IC50 ratio
# Type: functional
Metric name: Ratio

{"Compound": "CCO[C@H]1O[C@@H]2O[C@@]3(C)CC[C@H]4[C@H](C)C(=O)C[C@@H]([C@H]1C)[C@@]24OO3", "Ratio": 0.6}
{"Compound": "C[C@H]1[C@@H](CC(C)(F)F)O[C@@H]2O[C@@]3(C)CC[C@H]4[C@H](C)CC[C@@H]1[C@@]24OO3", "Ratio": 0.3}

Ask | Consider the compound CCO[C@H]1O[C@@H]2O[C@@]3(C)CC[C@H]4C(C)=C(F)C[C@@H]([C@H]1C)[C@@]24OO3 and give its measured Ratio.
Reply | 0.3

Ask | Consider the compound C[C@H]1[C@@H](CC(F)F)O[C@@H]2O[C@@]3(C)CC[C@H]4[C@H](C)CC[C@@H]1[C@@]24OO3 and give its measured Ratio.
Reply | 0.73

Ask | Consider the compound CCO[C@H]1O[C@@H]2O[C@@]3(C)CC[C@H]4[C@H](C=O)CC[C@@H]([C@H]1C)[C@@]24OO3 and give its measured Ratio.
Reply | 0.8

Ask | Consider the compound CCO[C@H]1O[C@@H]2O[C@@]3(C)CC[C@H]4[C@H](C)C(F)(F)C[C@@H]([C@H]1C)C24OO3 (single isomer, unassigned) and give its measured Ratio.
Reply | 0.8

Ask | Consider the compound CCO[C@H]1O[C@@H]2O[C@@]3(C)CC[C@H]4[C@H](C(F)F)CC[C@@H]([C@H]1C)[C@@]24OO3 and give its measured Ratio.
Reply | 1.5
